Origin of measurements: patent US20260098080A1

Biological target: human MASP-2 (in normal human serum) (human, UniProt O00187 16-686)
Sequence (O00187 16-686 limits assumed): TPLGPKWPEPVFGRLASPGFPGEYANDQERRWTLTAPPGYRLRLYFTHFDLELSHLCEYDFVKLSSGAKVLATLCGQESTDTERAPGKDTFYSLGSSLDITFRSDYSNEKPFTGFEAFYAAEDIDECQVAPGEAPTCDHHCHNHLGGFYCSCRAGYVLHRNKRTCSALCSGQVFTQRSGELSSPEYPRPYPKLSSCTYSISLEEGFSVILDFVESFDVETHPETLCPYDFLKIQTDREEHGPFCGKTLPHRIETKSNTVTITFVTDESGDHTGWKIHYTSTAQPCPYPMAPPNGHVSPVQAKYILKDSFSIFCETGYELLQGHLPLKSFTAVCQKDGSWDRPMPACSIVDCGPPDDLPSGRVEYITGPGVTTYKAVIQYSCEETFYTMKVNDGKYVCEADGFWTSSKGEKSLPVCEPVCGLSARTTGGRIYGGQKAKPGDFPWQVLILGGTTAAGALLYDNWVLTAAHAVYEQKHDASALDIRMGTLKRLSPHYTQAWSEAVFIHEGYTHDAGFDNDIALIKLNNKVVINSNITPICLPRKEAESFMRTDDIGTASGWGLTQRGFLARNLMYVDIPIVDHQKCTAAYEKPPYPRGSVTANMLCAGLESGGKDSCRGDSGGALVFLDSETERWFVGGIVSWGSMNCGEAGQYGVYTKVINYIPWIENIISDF
Assay: cell-based or functional assay
Where no end group is shown, it is not given here.
// NB: equality with 10 nM counts as 0; only IC50, lectin pathway C4 deposition, human serum strictly below is 1

binder	group-label
EVO221 (designed binder, not fully specified; cysteine pairing not given here, Modified TFPI-D2 Kunitz domain; made as m1) KPDFCFLENDPGVCRAAAVRYFYNNQTKQCERFYYGGCLGNMNNFVTLEECKNICEDG	0
EVO22 (designed binder, not fully specified; cysteine pairing not given here, Modified TFPI-D2 Kunitz domain; made as m1) KPDFCFLENDPGPCRALKRRYFYNNQTKQCERFYYGGCLGNMNNFVTLEECKNICEDG	1
EVO22b (designed binder, not fully specified; cysteine pairing not given here, Modified TFPI-D2 Kunitz domain; made as m1) KPDFCFLENDPGPCRALARRYFYNNQTKQCERFYYGGCLGNMNNFVTLEECKNICEDG	0
EVO25 (designed binder, not fully specified; cysteine pairing not given here, Modified TFPI-D2 Kunitz domain; made as m1) KPDFCFLENDPGPCRALKRRYFYNNQTKQCERFYYGGCFGNMNNFETLEECKNICEDG	1
EVO215 (designed binder, not fully specified; ends and bridges not checked, Modified TFPI-D2 Kunitz domain; made as m1) KPDFCFLENDPGWCRAAKRRYFYNNQTKQCERFGYGGCLGNMNNFVTLEECKNICEDG	0
EVO224 (designed binder, not fully specified; cysteine pairing not given here, Modified TFPI-D2 Kunitz domain; made as m1) KPDFCFLENDPGVCRALAVRYFYNNQTKQCERFYYGGCLGNMNNFVTLEECKNICEDG	0
